Listed here: items and their measured PSV neutralization IC50.
molecular target: SARS-CoV-1 spike on pseudovirus (SARS-CoV-1, UniProt P59594 14-1255); assay: cell-based or functional assay
value-kind: PSV neutralization IC50

[[record]]
binder = "L6.dP02A05 (antibody, V domains shown, human IgG1) VH: EVQLVQSGAEVKKPGASVKVSCMASGYTFTSYYMHWVRQAPGQGLEWMGIISPSGGGTSYAQKFQGRVTLTRDTSTSTVYMELSSLRSEDTAVYYCARWYDSTGSIDYWGQGTLVTVSS VL: DIVMTQSPSSLSASVGDRVTITCRASQGIRNDLGWYQQKPGKAPKRLIYAASSLQSGVPSRFSGSGSGTEFTLTISSLQPEDFATYYCLQHNSYPILTFGGGTKVEIK"
endpoint_result = "> 50 µg/mL"

[[record]]
binder = "L12.bP10G07 (antibody, V domains shown, human IgG1) VH: EVQLVQSGAEVKKPGASVKVSCKASGYIYSGYYMHWVRQAPGQGLEWMGWISPDSGGTNYAQRFQGRVTMTRDTSTTTAYMELSRLRSDDTAMYYCARGPRYSGTYFDYWGQGTLVTVSS VL: QTVVTQPASVSGSPGQSITISCTGTSSDVGGYNYVSWYQQHPDKAPKLIIYDVSNRPSGVSNRFSGSKSGNTASLTISGLQAEDEAAYYCSSYTSSSTQVFGGGTKLTVL"
endpoint_result = "> 50 µg/mL"


Recorded values, source patent US20230357364A1.
